For each of the compounds below, state its CC50.
protocol notes: Cytotoxicity against HEK293 cells
Type: cell-based
recorded conditions: human, read-out: LD50 (the source's name)
One number for each entry, in µM.

Sample records with CC50:
>>> meas_value("COC(=O)Nc1ccc(NC(=O)Nc2sc(-c3ccc(Cl)c(Cl)c3)cc2C(=O)O)cc1")
86
>>> meas_value("O=C(Nc1ccccc1)Nc1sc(-c2ccc(Cl)c(Cl)c2)cc1C(=O)O")
61
>>> meas_value("COc1ccc(NC(=O)Nc2sc(-c3ccc(Cl)c(Cl)c3)cc2C(=O)O)cc1")
80

Next compound, please.
INPUT: Reported CC50, compound CCN(Cc1ccccc1)C(=O)Nc1sc(-c2ccc(Cl)c(Cl)c2)cc1C(=O)O : ____
OUTPUT: 58
